assay: A CellTox Green Cytotoxicity Assay to monitor cytotoxicity in HEK293 cells - 8 hour (AID 1224884); settings: CellTox Green fluorescence; series mostly up to 76.8 µM; note: nearly all actives have a fitted effect of over 35% in size
Results filed as inconclusive are left out. Activity calls are given as the source filed them. Calls come from the whole dose curve; as a rule, active = well fitted activation curve with a large enough effect in the repeat runs; inconclusive = weak or mixed curves; inactive = flat fitted curve, though single readings scatter.
Classes used: 1.0 (active), 0.0 (inactive)

| Cpd smiles | Category |
| --- | --- |
| [C-]1=CC=CC1.[Cl][Zr+2][Cl].c1cc[cH-]c1 | 0.0 |
| CN/C(=N\[N+](=O)[O-])NCc1cnc(Cl)s1 | 0.0 |
| CC(C)N(C(=O)SC/C(Cl)=C/Cl)C(C)C | 0.0 |
| CCN1CCC2(CC1)COc1cc3c(cc12)N(C(=O)c1ccc(-c2ccc(-c4nnc(C)o4)cc2C)cc1)CC3 | 1.0 |
| CCCCn1cc[n+](C)c1.[Cl][Fe-]([Cl])([Cl])[Cl] | 0.0 |
| COC(=O)c1ccccc1S(=O)(=O)NC(=O)Nc1nc(C)nc(OC)n1 | 0.0 |
| CCOP(=O)(OCC)Oc1nc(Cl)c(Cl)cc1Cl | 0.0 |
| CCCCc1ccccc1 | 0.0 |
| C=CC(=O)[O][Sn]([CH2]CCC)([CH2]CCC)[CH2]CCC | 1.0 |
| CO/N=C(\C(=O)OC)c1ccccc1CO/N=C(\C)c1cccc(C(F)(F)F)c1 | 0.0 |

Source: PubChem BioAssay (Tox21)
